Source of measurements: patent US20230092890A1

molecular target: HDAC6 human recombinant (Homo sapiens, UniProt Q9UBN7); construct: purchased Calbiochem 382180; test: HDAC enzyme activity inhibition (in vitro), HDAC6 assay; format: biochemical; settings: samples at 0.1, 1, 10, 100 and 1000 nM; 37° C. 60 minutes; fluorescence Ex 390, Em 460; read-out: HDAC6 IC50
Sequence (Q9UBN7 whole entry): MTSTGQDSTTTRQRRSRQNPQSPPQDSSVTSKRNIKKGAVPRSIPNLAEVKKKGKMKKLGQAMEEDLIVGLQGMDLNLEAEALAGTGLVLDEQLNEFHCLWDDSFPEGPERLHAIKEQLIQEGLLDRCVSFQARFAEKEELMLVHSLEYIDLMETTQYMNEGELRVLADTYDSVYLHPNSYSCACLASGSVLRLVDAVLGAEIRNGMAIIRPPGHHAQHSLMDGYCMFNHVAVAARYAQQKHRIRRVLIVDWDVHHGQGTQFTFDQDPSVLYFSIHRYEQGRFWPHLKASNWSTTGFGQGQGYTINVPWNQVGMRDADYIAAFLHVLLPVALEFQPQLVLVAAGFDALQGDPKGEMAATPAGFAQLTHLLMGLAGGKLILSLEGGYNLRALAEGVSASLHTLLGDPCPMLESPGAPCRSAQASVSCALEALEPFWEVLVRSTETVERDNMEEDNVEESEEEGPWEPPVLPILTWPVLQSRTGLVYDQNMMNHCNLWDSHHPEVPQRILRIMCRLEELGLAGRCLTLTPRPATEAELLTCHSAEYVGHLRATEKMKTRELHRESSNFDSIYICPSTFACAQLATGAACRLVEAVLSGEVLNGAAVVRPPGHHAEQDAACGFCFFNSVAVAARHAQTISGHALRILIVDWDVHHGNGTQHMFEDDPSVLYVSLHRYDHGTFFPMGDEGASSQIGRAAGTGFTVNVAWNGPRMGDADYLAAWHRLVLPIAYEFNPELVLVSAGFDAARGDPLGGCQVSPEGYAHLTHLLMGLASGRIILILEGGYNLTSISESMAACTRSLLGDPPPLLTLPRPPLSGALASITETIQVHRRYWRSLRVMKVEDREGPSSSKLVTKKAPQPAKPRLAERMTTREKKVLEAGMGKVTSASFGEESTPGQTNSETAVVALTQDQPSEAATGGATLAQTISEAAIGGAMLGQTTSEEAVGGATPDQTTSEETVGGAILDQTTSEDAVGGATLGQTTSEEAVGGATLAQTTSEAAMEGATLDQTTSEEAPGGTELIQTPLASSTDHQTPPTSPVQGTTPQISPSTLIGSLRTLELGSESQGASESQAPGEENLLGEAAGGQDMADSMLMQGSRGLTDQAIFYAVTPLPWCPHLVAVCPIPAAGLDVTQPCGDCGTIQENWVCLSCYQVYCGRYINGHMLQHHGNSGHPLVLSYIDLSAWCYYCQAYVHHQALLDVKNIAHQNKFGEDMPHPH
pIC50: −log10 of the molar value.
metric: pIC50

Known pIC50 results, listed for orientation:
- Cn1c(=O)n(Cc2ccc(-c3nnc(C(F)F)o3)cn2)c2cc(F)c(-c3ccoc3)cc21: 7.40
- CN1CCC(n2c(=O)n(Cc3ccc(-c4nnc(C(F)F)o4)cn3)c3ccc(-c4ccncc4)cc32)CC1: 7.72
- CC(=O)N1CCC(n2c(=O)n(Cc3ccc(-c4nnc(C(F)F)o4)cn3)c3cc(C(F)(F)F)ccc32)CC1: 7.38

[1] Cn1c(=O)n(Cc2ccc(-c3nnc(C(F)F)o3)cn2)c2cc(F)c(N3CCN(Cc4cccnc4)CC3)cc21
[2] Cn1c(=O)n(Cc2ccc(-c3nnc(C(F)F)o3)cn2)c2cc(F)c(-c3ccc(C(F)(F)F)cc3)cc21
Req: Given the two records 1 and 2 , choose the one whose pIC50 value is lower. Answer format: the label of the selected item.
Resp: 2
